Species on record: Rattus norvegicus
Assay overview: Selectivity ratio of Ki for SERT in rat cerebral cortex to Ki for NET in rat cerebral cortex
Format: tissue-based
Ratio Ki below 2 gives 0; Ratio Ki at or above it gives 1.

The examples below pair each entry with its known result.
c1ccc(C(c2ccccc2)[C@@H]2CC[C@H](NCc3ccncc3)CO2)cc1 ... 0
O[C@@H](CN[C@H]1CC[C@@H](C(c2ccccc2)c2ccccc2)OC1)c1ccc(F)cc1 ... 1
c1ccc(C(c2ccccc2)[C@@H]2CC[C@H](NCc3ccco3)CO2)cc1 ... 0
Oc1ccccc1CN[C@H]1CC[C@@H](C(c2ccccc2)c2ccccc2)OC1 ... 1
Oc1cccc(CN[C@H]2CC[C@@H](C(c3ccccc3)c3ccccc3)OC2)c1 ... 0
c1ccc(C(c2ccccc2)[C@@H]2CC[C@H](NCc3cccc4ccccc34)CO2)cc1 ... 0
O[C@H](CN[C@H]1CC[C@@H](C(c2ccccc2)c2ccccc2)OC1)c1ccc(F)cc1 ... 1
c1ccc(C(c2ccccc2)[C@@H]2CC[C@H](NCc3cccnc3)CO2)cc1 ... 0

q: Given COc1cccc([C@H](O)CN[C@H]2CC[C@@H](C(c3ccccc3)c3ccccc3)OC2)c1 , state whether its Ratio Ki is at least 2.
a: 1

q: Now consider c1ccc(C(c2ccccc2)[C@@H]2CC[C@H](NCc3cccs3)CO2)cc1 and answer again.
a: 1

q: # iterate: O[C@@H](CN[C@H]1CC[C@@H](C(c2ccccc2)c2ccccc2)OC1)c1ccccc1
a: 1

q: What do you get for COc1cccc([C@@H](O)CN[C@H]2CC[C@@H](C(c3ccccc3)c3ccccc3)OC2)c1 ?
a: 1

q: Same question for c1ccc(C(c2ccccc2)[C@@H]2CC[C@H](NCc3ccc[nH]3)CO2)cc1 please.
a: 1

q: Note, next up: O[C@H](CN[C@H]1CC[C@@H](C(c2ccccc2)c2ccccc2)OC1)c1ccccc1
a: 1

q: For c1ccc(C(c2ccccc2)[C@@H]2CC[C@H](NCc3ccccn3)CO2)cc1 then?
a: 0

###

# Ki measurements, system: UniProt:P23977
# Sequence (P23977 whole entry): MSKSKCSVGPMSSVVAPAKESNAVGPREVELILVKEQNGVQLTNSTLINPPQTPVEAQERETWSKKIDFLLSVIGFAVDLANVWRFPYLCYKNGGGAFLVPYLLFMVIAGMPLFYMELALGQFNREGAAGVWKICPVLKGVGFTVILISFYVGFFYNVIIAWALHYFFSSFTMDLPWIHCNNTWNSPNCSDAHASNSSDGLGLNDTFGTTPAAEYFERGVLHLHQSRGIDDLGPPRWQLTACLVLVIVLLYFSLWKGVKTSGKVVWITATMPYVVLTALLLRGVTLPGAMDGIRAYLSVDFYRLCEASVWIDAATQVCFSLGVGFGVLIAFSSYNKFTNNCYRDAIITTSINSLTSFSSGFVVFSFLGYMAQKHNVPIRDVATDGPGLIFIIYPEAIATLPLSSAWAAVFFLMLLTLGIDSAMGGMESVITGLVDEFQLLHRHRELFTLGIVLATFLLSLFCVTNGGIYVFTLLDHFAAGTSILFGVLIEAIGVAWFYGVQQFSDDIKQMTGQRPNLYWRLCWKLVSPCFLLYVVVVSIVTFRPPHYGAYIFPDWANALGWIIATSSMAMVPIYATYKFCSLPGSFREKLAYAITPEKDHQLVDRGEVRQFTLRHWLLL
Please reply with the bare figure in nM and do not write the unit itself.

In the examples that follow, each entry is paired with its recorded Ki.
COc1cccc([C@@H](O)CN[C@H]2CC[C@@H](C(c3ccccc3)c3ccccc3)OC2)c1 ... 125
c1ccc(C(c2ccccc2)[C@@H]2CC[C@H](NCc3cccnc3)CO2)cc1 ... 145
COc1ccc(CN[C@H]2CC[C@@H](C(c3ccccc3)c3ccccc3)OC2)cc1 ... 15.9
Oc1cccc(CN[C@H]2CC[C@@H](C(c3ccccc3)c3ccccc3)OC2)c1 ... 31.3

q: So what Ki did Oc1ccccc1CN[C@H]1CC[C@@H](C(c2ccccc2)c2ccccc2)OC1 get with UniProt:P23977?
a: 200

q: # iterate: O[C@@H]1C[C@@H](C(c2ccccc2)c2ccccc2)OC[C@H]1NCc1ccc2[nH]ccc2c1 (single isomer, unassigned)
a: 85.2

q: Here is the next compound: c1ccc(C(c2ccccc2)[C@@H]2CC[C@H](NCc3ccc[nH]3)CO2)cc1
a: 43.2

q: Repeat for the following compound: c1ccc(C(c2ccccc2)[C@@H]2CC[C@H](NCc3ccco3)CO2)cc1
a: 110

q: Cool, now c1ccc(C(c2ccccc2)[C@@H]2CC[C@H](NCc3ccncc3)CO2)cc1
a: 28.3

q: For O[C@@H](CN[C@H]1CC[C@@H](C(c2ccccc2)c2ccccc2)OC1)c1ccccc1 then?
a: 145

q: Then COc1cccc([C@H](O)CN[C@H]2CC[C@@H](C(c3ccccc3)c3ccccc3)OC2)c1 ?
a: 137

q: // same read-out, input: O[C@H](CN[C@H]1CC[C@@H](C(c2ccccc2)c2ccccc2)OC1)c1ccccc1
a: 54

q: Ok, now c1ccc(C(c2ccccc2)[C@@H]2CC[C@H](NCc3cccs3)CO2)cc1
a: 41.4

q: Proceed to c1ccc(C(c2ccccc2)[C@@H]2CC[C@H](NCc3cccc4ccccc34)CO2)cc1
a: 473

q: What do you get for c1ccc(C(c2ccccc2)[C@@H]2CC[C@H](NCc3ccccn3)CO2)cc1 ?
a: 209

q: Okay, and O[C@@H](CN[C@H]1CC[C@@H](C(c2ccccc2)c2ccccc2)OC1)c1ccc(F)cc1 ?
a: 71.8

q: Same question, O[C@H](CN[C@H]1CC[C@@H](C(c2ccccc2)c2ccccc2)OC1)c1ccc(F)cc1 this time
a: 106

###

# Ratio Ki per record follows
Species on record: Rattus norvegicus
Assay overview: Selectivity ratio of Ki for DAT in rat striatum to Ki for SERT in rat cerebral cortex
Assay type: tissue-based
Respond using a number only.

O[C@@H](CN[C@H]1CC[C@@H](C(c2ccccc2)c2ccccc2)OC1)c1ccc(F)cc1 ... 0.06
O[C@@H](CN[C@H]1CC[C@@H](C(c2ccccc2)c2ccccc2)OC1)c1ccccc1 ... 0.15
c1ccc(C(c2ccccc2)[C@@H]2CC[C@H](NCc3cccs3)CO2)cc1 ... 0.22

q: Query (compound): COc1cccc([C@@H](O)CN[C@H]2CC[C@@H](C(c3ccccc3)c3ccccc3)OC2)c1 ; field requested: Ratio Ki
a: 0.11

q: Again, but for Oc1ccccc1CN[C@H]1CC[C@@H](C(c2ccccc2)c2ccccc2)OC1
a: 0.45

q: Cool, now c1ccc(C(c2ccccc2)[C@@H]2CC[C@H](NCc3cccc4ccccc34)CO2)cc1
a: 5.33

q: Moving on to COc1cccc([C@H](O)CN[C@H]2CC[C@@H](C(c3ccccc3)c3ccccc3)OC2)c1
a: 0.21

q: Query c1ccc(C(c2ccccc2)[C@@H]2CC[C@H](NCc3ccco3)CO2)cc1 next
a: 0.96

q: Same thing, different compound: c1ccc(C(c2ccccc2)[C@@H]2CC[C@H](NCc3cccnc3)CO2)cc1
a: 0.95

q: Same read-out for O[C@H](CN[C@H]1CC[C@@H](C(c2ccccc2)c2ccccc2)OC1)c1ccc(F)cc1 ?
a: 0.13

q: // next record O[C@H](CN[C@H]1CC[C@@H](C(c2ccccc2)c2ccccc2)OC1)c1ccccc1
a: 0.07

q: Same lookup for Oc1cccc(CN[C@H]2CC[C@@H](C(c3ccccc3)c3ccccc3)OC2)c1 , please.
a: 0.78

###

Tested on: Sodium-dependent serotonin transporter (Rattus norvegicus, UniProt P31652)
Sequence (P31652 whole entry): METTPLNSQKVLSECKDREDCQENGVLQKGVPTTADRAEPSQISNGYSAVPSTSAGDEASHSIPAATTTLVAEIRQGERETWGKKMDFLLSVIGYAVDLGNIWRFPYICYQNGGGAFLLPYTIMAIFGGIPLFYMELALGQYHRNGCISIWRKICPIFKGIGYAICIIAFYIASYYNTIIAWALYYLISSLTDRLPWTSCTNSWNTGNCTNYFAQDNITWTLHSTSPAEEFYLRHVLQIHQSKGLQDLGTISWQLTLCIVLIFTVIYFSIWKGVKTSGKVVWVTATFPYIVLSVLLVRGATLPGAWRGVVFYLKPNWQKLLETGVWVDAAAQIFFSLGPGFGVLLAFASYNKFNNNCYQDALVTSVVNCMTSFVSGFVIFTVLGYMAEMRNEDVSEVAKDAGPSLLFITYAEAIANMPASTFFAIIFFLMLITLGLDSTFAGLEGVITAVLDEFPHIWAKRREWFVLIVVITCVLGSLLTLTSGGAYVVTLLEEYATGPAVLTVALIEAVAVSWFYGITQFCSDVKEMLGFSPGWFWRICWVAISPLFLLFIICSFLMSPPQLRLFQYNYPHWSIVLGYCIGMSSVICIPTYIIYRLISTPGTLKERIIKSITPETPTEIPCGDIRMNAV
Binning scheme for Ki: label 0: < 200 nM; label 1: ≥ 200 nM and < 800 nM; label 2: ≥ 800 nM

# example entries with known answers
c1ccc(C(c2ccccc2)[C@@H]2CC[C@H](NCc3cccc4ccccc34)CO2)cc1 ... label 0
O[C@@H](CN[C@H]1CC[C@@H](C(c2ccccc2)c2ccccc2)OC1)c1ccc(F)cc1 ... label 2
c1ccc(C(c2ccccc2)[C@@H]2CC[C@H](NCc3cccs3)CO2)cc1 ... label 0
c1ccc(C(c2ccccc2)[C@@H]2CC[C@H](NCc3cccnc3)CO2)cc1 ... label 0
c1ccc(C(c2ccccc2)[C@@H]2CC[C@H](NCc3ccco3)CO2)cc1 ... label 0
c1ccc(C(c2ccccc2)[C@@H]2CC[C@H](NCc3ccc[nH]3)CO2)cc1 ... label 0
Oc1ccccc1CN[C@H]1CC[C@@H](C(c2ccccc2)c2ccccc2)OC1 ... label 1
Oc1cccc(CN[C@H]2CC[C@@H](C(c3ccccc3)c3ccccc3)OC2)c1 ... label 0

q: Input c1ccc(C(c2ccccc2)[C@@H]2CC[C@H](NCc3ccncc3)CO2)cc1 ; output its category
a: label 2

q: Cool, now c1ccc(C(c2ccccc2)[C@@H]2CC[C@H](NCc3ccccn3)CO2)cc1
a: label 1

###

Assay overview: Inhibition of NET in rat cerebral cortex assessed as [3H]norepinephrine accumulation
Assay type: tissue-based
Below: a set of entries, each annotated with reported pKi.
A value of pKi is the negative decimal logarithm of a concentration given in moles per litre.

Here's what some known entries look like.
COc1ccc(CN[C@H]2CC[C@@H](C(c3ccccc3)c3ccccc3)OC2)cc1 ... 7.53
c1ccc(C(c2ccccc2)[C@@H]2CC[C@H](NCc3cccc4ccccc34)CO2)cc1 ... 6.63
c1ccc(C(c2ccccc2)[C@@H]2CC[C@H](NCc3ccco3)CO2)cc1 ... 7.22
COc1cccc([C@H](O)CN[C@H]2CC[C@@H](C(c3ccccc3)c3ccccc3)OC2)c1 ... 6.52
c1ccc(C(c2ccccc2)[C@@H]2CC[C@H](NCc3ccc[nH]3)CO2)cc1 ... 7.40
O[C@H](CN[C@H]1CC[C@@H](C(c2ccccc2)c2ccccc2)OC1)c1ccccc1 ... 6.53

q: Consider the molecule shown here: O[C@H](CN[C@H]1CC[C@@H](C(c2ccccc2)c2ccccc2)OC1)c1ccc(F)cc1 What is its recorded pKi?
a: 6.65

q: Same for O[C@@H](CN[C@H]1CC[C@@H](C(c2ccccc2)c2ccccc2)OC1)c1ccc(F)cc1
a: 6.26

q: Also c1ccc(C(c2ccccc2)[C@@H]2CC[C@H](NCc3cccnc3)CO2)cc1 ?
a: 6.45

q: Entry c1ccc(C(c2ccccc2)[C@@H]2CC[C@H](NCc3cccs3)CO2)cc1 please
a: 7.33

q: And then Oc1cccc(CN[C@H]2CC[C@@H](C(c3ccccc3)c3ccccc3)OC2)c1 , what is it?
a: 7.41

q: Now give it for Oc1ccccc1CN[C@H]1CC[C@@H](C(c2ccccc2)c2ccccc2)OC1 too.
a: 6.80

q: Another molecule to look at: O[C@@H](CN[C@H]1CC[C@@H](C(c2ccccc2)c2ccccc2)OC1)c1ccccc1
a: 6.79

q: Record: COc1cccc([C@@H](O)CN[C@H]2CC[C@@H](C(c3ccccc3)c3ccccc3)OC2)c1
a: 6.37

q: Again, but for c1ccc(C(c2ccccc2)[C@@H]2CC[C@H](NCc3ccncc3)CO2)cc1
a: 6.34
